Test system: SNB-75 CNS
Experiment: NCI tumour cell line growth inhibition, 48 h; in the data active means GI50 below about 0.43 µM; inactive means the rest
Hello, when you answer, please use one of the following outcomes: true for active, false for inactive

Compound | Discrete Label
NC(CSC(c1ccccc1)(c1ccccc1)c1ccc(Br)cc1)C(=O)O (configuration not stated) | false
O=[N+]([O-])c1ccc(N/N=C\c2ccc(O)cc2O)nc1 | false
COc1cc(Nc2nccc(-c3cnn4ncccc34)n2)cc(OC)c1 | true
C/C(=N\O)c1ccc(Nc2cc(-c3ccccc3)nc3c(O)cccc23)cc1 | false
Cc1cnc2n(c1=O)Cc1ccccc1CO2 | false
COC(=O)/C=C/c1cc(OC)c2c(c1)[C@@H](C(=O)OC)[C@H](c1ccc(OC)c(OC)c1)O2 | false

Let's switch to this compound now.
Incoming: Could you please tell me the result logged for Nc1c2c(c(O)c3c1=C(CO)C=N3)=NCCS2=O (configuration not stated) in this assay?
Outgoing: false

====

System: NCI-H522 lung
Assay: NCI tumour cell line growth inhibition, 48 h
Measurement Type: GI50

Examples from the recorded data:
Compound | GI50
COc1cc(/C=C2\CCCC3=C2N=C2SC=NN2C3c2cc(OC)c(OC)c(OC)c2)cc(OC)c1OC (centres undefined) | 2.72 µM
C/C(=N\O)c1ccc(Nc2cc(-c3ccccc3)nc3c(O)cccc23)cc1 | 16.7 µM
CC/C(=C(/c1ccc(Cl)cc1)c1ccc(OCCCN(C)C)cc1)c1ccc(OC)cc1 | 6.56 µM

--- query ---
Incoming: # get_value(readout='GI50', item= "Nc1c(C(=O)Nc2cccc3ccccc23)sc2nc3c(cc12)CCCCCC3" )
Outgoing: 0.865 µM

====

System: XF 498 CNS
Assay: NCI tumour cell line growth inhibition, 48 h
For each of the molecules below, state its TGI.

Compound String | TGI
CCOC(=O)/C(C#N)=C/c1[nH]c(C)c(C)c1C | > 100 µM

For each of the items listed, what is its TGI?
1. Cn1c(=O)c2nc3sc4ccccc4c(=N)n3c2n(C)c1=O
2. O=C(NCCOCCO)c1ccc(O)cc1

Outgoing:
1: > 100 µM; 2: > 100 µM

====

Tested on: KM20L2 colon
Test: NCI tumour cell line growth inhibition, 48 h
Give TGI for every item shown.

Compound | TGI
O=C(O)c1cc2sc(C(=O)O)cc2s1 | > 100 µM
O=C(NCCOCCO)c1ccc(O)cc1 | > 100 µM
CCCCCCCCC[C@@H]1C[C@H](O)[C@H](Cc2ccccc2)N1C(=O)OC(C)(C)C | 34.5 µM

The following compounds each have a reported value; give each one's TGI.
1. CCOC(=O)/C(C#N)=C/c1[nH]c(C)c(C)c1C
2. CC(=O)Oc1cc(OC(C)=O)c(OC(C)=O)c2c1CC1C(=O)C3(CCc4ccccc43)C(=O)C1C2 (stereo not drawn)
3. Cc1ccc(Sc2cc([N+](=O)[O-])cc(Sc3ccc(C)cc3)c2Sc2ccc(C)cc2)cc1

Outgoing:
> 100 µM
48.3 µM
> 100 µM

For each of the compounds below, note its TGI.
1. CCC1(O)CC(c2ccccc2)N(C)C(c2ccccc2)C1 (stereo not drawn)
2. CC12CCC(C)(c3cc(O)c(O)cc31)c1cc(O)c(O)cc12

Outgoing:
> 100 µM
39.2 µM

====

Tested on: SR leukemia
Test: NCI tumour cell line growth inhibition, 48 h; in the data active = GI50 below about 0.43 µM; inactive = the rest
Choose one outcome from this list and give only that: yes for active, no for inactive

Solved cases below.
Molecule | Discrete Label
COc1ccc(S(=O)(=O)Nc2c(/C=C\c3cc(OC)c(OC)c(OC)c3)ccc(OC)c2O)cc1OC | yes
COc1cc(/C=C/C(=O)c2ccc(SC)cc2)cc(OC)c1OC | no
COc1ccc(/C=N/C2=C(C#N)C(c3ccccc3)c3ccc4ccccc4c3O2)cc1 (stereo not given) | yes
COc1nc(C(Cl)(Cl)Cl)c(Cl)c(OC)c1Cl | no

Incoming: Recorded test outcome, item COc1ccc2nc3c(cc2c1)C(=O)CC(C(F)(F)F)C3 (stereo not given)
Outgoing: yes

====

Test system: HOP-62 NSCLC
Experiment: NCI tumour cell line growth inhibition, 48 h
Measurement Type: TGI

The following compounds have reported results that may help.
Compound | Study System | Result Value
FC1(F)SC2CCCCCCCCCCC2C1(F)F (stereo not drawn) | HOP-62 NSCLC | > 100 µM
Cc1nc(N(C)C)nc(-c2cccc(-c3ccn(CCN(C)C)n3)c2)c1C | HOP-62 NSCLC | > 20 µM

Let's switch to this compound now.
Incoming: Which measured TGI value corresponds to "CC1(C)OC(=O)C(c2ccsc2)C(=O)O1" ?
Outgoing: > 100 µM

====

Consider the following compounds; for each one, report its TGI.
System: U251 CNS
Assay: NCI tumour cell line growth inhibition, 48 h

Compound | TGI
COC(=O)C(Cc1cc(OC)c(OC)c(OC)c1)(NC(=O)c1ccccc1)P(=O)(OC)OC (configuration not stated) | > 100 µM
C=CCOC1=C(OC(C)=O)C(C2COC(C)(C)O2)OC1=O (configuration not stated) | 72.5 µM
CCOC(=O)/C(C#N)=C/c1[nH]c(C)c(C)c1C | > 100 µM
CCN(CC)C(=O)N1CN(c2ccccc2)C2(CCN(CCCC3(c4ccc(F)cc4)OCCO3)CC2)C1=O | 30.2 µM

Please state, for each entry, its recorded TGI.
1. Cc1ccc(S(=O)(=O)N/N=C2/C3CC4CCC2C4C3)cc1 (configuration not stated)
2. C[C@H](N)C(=O)Nc1ccc(-c2nc3ccccc3s2)cc1Cl

Outgoing:
1. > 100 µM
2. 29.1 µM

====

System: UACC-257 melanoma
Experiment: NCI tumour cell line growth inhibition, 48 h
Assign TGI to each entry below.

Record excerpt, results attached:
Compound | TGI
COc1ccccc1N1C(=O)/C(=C\c2ccccc2)SC1c1cc(OC)c(OC)c(OC)c1 (stereo not drawn) | > 100 µM
O=C(O)c1cccc(F)c1C(=O)c1ccc2ccccc2c1 | > 100 µM

Incoming: Query (compound): "Cc1ccc(Sc2cc([N+](=O)[O-])cc(Sc3ccc(C)cc3)c2Sc2ccc(C)cc2)cc1" ; field requested: TGI
Outgoing: > 100 µM

====

Tested on: SNB-78 CNS
Test: NCI tumour cell line growth inhibition, 48 h
Measurement Type: TGI

Use these answered entries as a reference point.
Compound String | Result Value
Cc1ccc(Sc2cc([N+](=O)[O-])cc(Sc3ccc(C)cc3)c2Sc2ccc(C)cc2)cc1 | > 100 µM
O=[N+]([O-])c1cnccc1-n1nnc2ccccc21 | > 100 µM

Incoming: # lookup: TGI of "Nc1c(-c2ccc(-c3c(N)[n+]([O-])c4ccccc4[n+]3[O-])cc2)[n+]([O-])c2ccccc2[n+]1[O-]"
Outgoing: 62.3 µM

====

Test system: HOP-92 NSCLC
Assay: NCI tumour cell line growth inhibition, 48 h
Measurement Type: TGI

Molecule | Measurement Type | Result Value
COc1ccc(OC)c2c1-c1nnnn1CCC2(C)C | TGI | > 100 µM

Provide TGI values for the following items, in order.
1. COC(=O)C(Cc1cc(OC)c(OC)c(OC)c1)(NC(=O)c1ccccc1)P(=O)(OC)OC (stereo not drawn)
2. COc1cc(C2C(C(=O)Nc3ccccc3C)=C(C)NC(C)=C2C(=O)Nc2ccccc2C)ccc1O
3. O=[N+]([O-])c1ccc(N/N=C\c2ccc(O)cc2O)nc1
4. CCC1(O)CC(c2ccccc2)N(C)C(c2ccccc2)C1 (stereo not drawn)

Outgoing:
1: > 100 µM; 2: > 100 µM; 3: > 100 µM; 4: > 100 µM

Hey, quick one: what's TGI for each of these?
1. Cc1cc(=O)[nH]c2c1C(=O)C(=O)C=C2
2. Cc1cc(NS(=O)(=O)c2ccc(N=Nc3c(Nc4ccccc4)nn(-c4ccc(S(=O)(=O)Nc5ccncn5)cc4)c3C)cc2)no1
3. COc1cc(/C=C2\CCCC3=C2N=C2SC=NN2C3c2cc(OC)c(OC)c(OC)c2)cc(OC)c1OC (stereo not drawn)
4. CC(=O)NC1C(OCc2ccccc2)OC(COC(=O)CCCCCCCCCCNC(=O)CCNc2ccc([N+](=O)[O-])c3[nH]c4ccc(O)cc4c(=O)c23)C(O)C1OC(C)C(=O)N[C@H](C(=O)N[C@H](CCC(=O)O)C(N)=O)C(C)C (stereo partly drawn)
5. COc1ccc2oc(=O)c(-c3nc4ccccc4s3)cc2c1
6. C[C@]12CC[C@H](O)CC1CCC[C@@H]2O (stereo partly drawn)
7. C[C@@H](Br)[C@@H]1CC[C@H]2c3[nH]c4ccccc4c3CCN2C1
8. CCn1cc(C(=O)O)c(=O)c2cc(F)c(N3CCNCC3)nc21

Outgoing:
["> 100 µM", "> 100 µM", "> 100 µM", "88.4 µM", "58.2 µM", "> 100 µM", "65.2 µM", "> 100 µM"]
